assayMetric: MDR1-MDCK efflux ratio

Example cases with answers are listed next.
Cc1cccc(NC2CCN(Cc3ccncc3)CC2)n1
0.496
O=C(NC1(c2ccccc2)CCC1)c1cc(C2CC2)on1
0.543
Cc1ccc(C)c2nc3c(cc12)CNCCO3
0.525
O=c1c2c(nc3ccccn13)CCN(S(=O)(=O)C1CCCCC1)C2
1.18
O=C(CSC1CCCC1)N1CCC(n2ccnn2)CC1
1.3

A. Cc1cc(Nc2nnc(C)s2)cc(C2CN(C(=O)c3c(C(C)C)noc3C)CCO2)n1 (centres undefined)
B. COc1ccc(CCn2c(C3CC3)n[nH]c2=O)cc1
## Input Parameter check: reported MDR1-MDCK efflux ratio is higher for which label, A or B ? Please reply using the label of the selected record.
## Output A

1. CS(=O)(=O)Nc1ccccc1-c1ccncc1
2. O=C(CN1CCc2ccccc21)N1CCC(c2nc3ccccc3[nH]2)CC1
## Input Please indicate which entry, 1 or 2 , has the lower recorded MDR1-MDCK efflux ratio value. Please reply using the label of the selected record.
## Output 1

1. O=C(NCCN1CCC(c2ccccc2)CC1)c1ccc2ncsc2c1
2. CNc1nc(C)nc(N[C@H]2CCC[C@@H](C(=O)NCc3ccc(C#N)cc3C(F)(F)F)C2)n1
3. CCc1cc(N2CCOCC2)nc(C2CCN(C(=O)C3CC3)CC2)n1
4. Cc1nc(NCc2cn(C)nc2-c2cccs2)n(C)n1
5. O=C(NC[C@@H]1CCN(c2ccccc2)C1)N1CCc2ccccc2C1
## Input Rank order required: MDR1-MDCK efflux ratio, descending. Please respond by ranking the labels in the order requested.
## Output 2, 4, 3, 1, 5

a. Cc1ccc(NC(=O)CN2CCCC(c3nc4ccccc4o3)C2)cc1C (centres undefined)
b. CC(=O)Nc1ccnn1C1CCN(Cc2ccccc2C#Cc2ccccc2)CC1
## Input Please indicate which entry, a or b , has the lower recorded MDR1-MDCK efflux ratio value. Please reply using the label of the selected record.
## Output a
(a: 1.08, b: 26.5)

1. Cc1noc(CCNc2ncnc3ccccc23)n1
2. c1ccc(OCCN2CCN(c3ncccn3)CC2)cc1
3. CNC(=O)C1(Cc2ccc(-c3cccnc3)cc2)CCN(Cc2ccc(F)cc2)C1 (centres undefined)
4. CCCn1ncc(CN2CCC(c3cc4cccnc4[nH]3)CC2)c1C
## Input Ascending sort, MDR1-MDCK efflux ratio. Please respond by ranking the labels in the order requested.
## Output 2, 1, 3, 4

A. CC(C)c1nnc(CN(C(C)C)C2CCOCC2)o1
B. CCc1nc(NC(=O)c2ccccc2F)sc1C
C. N#Cc1ccnc(Nc2cc(C3CCN(C4COC4)CC3)cc(N3CCC(F)(F)C3)n2)c1
## Input Ascending sort, MDR1-MDCK efflux ratio. Please respond by ranking the labels in the order requested.
## Output B, A, C
